molecular target: FGFR3 (UniProt P22607); experiment: phosphorylation enrichment, bacterial display (enrichment ratio); higher = better substrate or ligand; peptides without Tyr show the background;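 also: 11-residue human phosphosite peptides and single-mutation variants displayed on the E. coli surface, counted by deep sequencing, each peptide's frequency after selection divided by its frequency in the unselected input library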;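 also: frequency after pTyr selection over input frequency; kinase dosed for 20-30% of maximal phosphorylation in three min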
Sequence (P22607 whole entry, looked up): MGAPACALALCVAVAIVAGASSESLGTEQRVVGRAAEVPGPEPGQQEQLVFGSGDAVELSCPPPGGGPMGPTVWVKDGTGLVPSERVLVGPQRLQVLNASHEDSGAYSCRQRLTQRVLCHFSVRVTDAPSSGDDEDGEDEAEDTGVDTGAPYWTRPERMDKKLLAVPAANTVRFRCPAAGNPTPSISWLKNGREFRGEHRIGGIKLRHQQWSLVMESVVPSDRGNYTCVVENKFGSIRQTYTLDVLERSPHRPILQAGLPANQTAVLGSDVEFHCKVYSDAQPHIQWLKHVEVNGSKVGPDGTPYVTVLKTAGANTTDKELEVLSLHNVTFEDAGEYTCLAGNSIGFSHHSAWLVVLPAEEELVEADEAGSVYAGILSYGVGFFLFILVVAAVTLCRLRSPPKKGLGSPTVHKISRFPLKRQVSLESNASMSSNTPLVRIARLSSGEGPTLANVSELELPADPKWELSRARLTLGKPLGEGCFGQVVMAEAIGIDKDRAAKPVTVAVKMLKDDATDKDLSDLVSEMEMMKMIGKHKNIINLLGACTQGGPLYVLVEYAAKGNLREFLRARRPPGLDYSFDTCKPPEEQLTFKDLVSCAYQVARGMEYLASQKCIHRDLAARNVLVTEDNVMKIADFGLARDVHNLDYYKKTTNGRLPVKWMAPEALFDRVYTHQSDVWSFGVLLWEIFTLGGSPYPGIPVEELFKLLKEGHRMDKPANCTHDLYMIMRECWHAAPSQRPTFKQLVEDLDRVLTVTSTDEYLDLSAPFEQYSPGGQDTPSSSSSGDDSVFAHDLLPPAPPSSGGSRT
Label rule, in plain words: phosphorylation enrichment of 0.6 and up is rule met, under 0.6 is rule not met.

Completed entries (count: 8):
LTMAPYSSVSL [FAM81A_Y24]: rule not met
TPGPNYCPGFN [USH2A_Y463_R464C_YF]: rule not met
TINPIHEHVGY [CHN1_Y143_Y143H]: rule not met
VNYGAYINYFK [GLB1_Y488_D491Y]: rule met
EEALYYLTRVE [SET_Y119_H118Y]: rule met
SSSGAYGGGYG [KRT19_Y61]: rule not met
GRVFVYHLSEQ [ITGAE_Y551_R552H_YF]: rule met
KNEVFYQCPDQ [FBXO3_Y223]: rule met

Query :: Threshold query (phosphorylation enrichment >= 0.6) on SDPIIYTLENI [ADGRE1_Y534]
Result :: rule met

Query :: Threshold query (phosphorylation enrichment >= 0.6) on HILFRYPKEFQ [IDS_Y234_P231L]
Result :: rule met

Query :: Threshold query (phosphorylation enrichment >= 0.6) on ISDEAYVMAGV [ERBB2_Y772_L768S]
Result :: rule met

Query :: Threshold query (phosphorylation enrichment >= 0.6) on PLQSEYSSITT [ITGB4_Y1760]
Result :: rule met

Query :: Threshold query (phosphorylation enrichment >= 0.6) on PGPPGYCDSSH [COL12A1_Y3043_Q3048H]
Result :: rule met

Query :: Threshold query (phosphorylation enrichment >= 0.6) on IGNGYYFHVFS [MYBPC3_Y1136_R1138H]
Result :: rule met

Query :: Threshold query (phosphorylation enrichment >= 0.6) on LIFTNYEAGKD [GSTP1_Y112_YF]
Result :: rule met
